Overview of recorded TEST COLOR for various compounds
- Tested on: Mobiluncus curtisii ATCC strain 35241 cell hydrolysis of Z-L-arg.L-arg.AFC
- ASSAY_SUMMARY: Enzyme inhibitors on cell hydrolysis of Z-ARG.ARG.AFC, PDMAC chromogen (Experiment X)
- Assay type: biochemical
- PARTICULARS: CONCENTRATION (Mm) 0.5; Z-ARG.ARG.AFC as the conjugate; 1.5 hours at room temperature; water control 2
Non-standard residues stand in square brackets, D forms with d. Residues, ends and D or L forms follow the SMILES beside them. *: point of attachment. Sta = CC(C)C[C@H](N)[C@@H](O)CC(=O)O; Isovaleryl = CC(C)CC(=O)*
Please respond with just the number, no unit label.

Here is how some compounds turned out for TEST COLOR.
>  <COMPOUND>
CC(C)CC(=O)N[C@H](C(=O)N[C@H](C(=O)N[C@@H](CC(C)C)[C@@H](O)CC(=O)N[C@@H](C)C(=O)N[C@@H](CC(C)C)[C@@H](O)CC(=O)O)C(C)C)C(C)C [pepstatin] (Isovaleryl-VV[Sta]A[Sta]-OH)

>  <TEST COLOR>
2

$$$$
>  <COMPOUND>
Cc1ccc(S(=O)(=O)N[C@@H](Cc2ccccc2)C(=O)CCl)cc1

>  <TEST COLOR>
0.5

$$$$

Form field: reported TEST COLOR of Cc1ccc(S(=O)(=O)N[C@@H](CCCCN)C(=O)CCl)cc1
0.5

Form field: reported TEST COLOR of O=S(=O)(F)Cc1ccccc1 [PMSF, phenyl methyl sulfonyl fluoride]
2
